I'd appreciate it if you could supply Emax values for the items below.
Test system: c-myc in 22RV-1 cells
Test: Human c-myc ELISA assay
Type: cell-based
Details: Homo sapiens, 22Rv1, 18 h, read-out: Degradation of BRD4: Maximum inhibition (%) c-Myc ELISA in 22RV1 cells
Description: 22RV-1 cells are seeded at 30,000 cells/well at a volume of 75 μL/well in RPMI+10% FBS media in 96-well plates and grown overnight at 37 C. Cells are dosed with compounds at 4× concentration diluted in 0.4% DMSO; compounds are serially diluted 1:3 for 8-point dose curve. 25 ul of compounds is added to cells for a final concentration starting at 300 nM-0.3 nM or 1 uM-1 nM in 0.1% DMSO and incubated for 18 hrs. […] Data is analyzed and plotted using GraphPad Prism software. […]
# unit: % | format: bare number

# value of Emax, c-myc in 22RV-1 cells, item `Cc1ncsc1-c1ccc([C@H](C)NC(=O)[C@@H]2C[C@@H](O)CN2C(=O)[C@@H](NC(=O)c2cc3cc(O[C@H]4C[C@H](NC(=O)C[C@@H]5N=C(c6ccc(Cl)cc6)c6c(sc(C)c6C)-n6c(C)nnc65)C4)ccc3o2)C(C)(C)C)cc1` = 89.5

# value of Emax, c-myc in 22RV-1 cells, item `Cc1ncsc1-c1ccc(CNC(=O)[C@@H]2C[C@@H](O)CN2C(=O)[C@@H](NC(=O)Cc2ccc3cc(CCNC(=O)C[C@@H]4N=C(c5ccc(Cl)cc5)c5c(sc(C)c5C)-n5c(C)nnc54)oc3c2)C(C)(C)C)cc1` = 100

# value of Emax, c-myc in 22RV-1 cells, item `Cc1ncsc1-c1ccc(CNC(=O)[C@@H]2C[C@@H](O)CN2C(=O)[C@@H](NC(=O)COCCOCCOCCOCCOCCNC(=O)C[C@@H]2N=C(c3ccc(Cl)cc3)c3c(sc(C)c3C)-n3c(C)nnc32)C(C)(C)C)cc1` = 93

# value of Emax, c-myc in 22RV-1 cells, item `Cc1ncsc1-c1ccc(CNC(=O)[C@@H]2C[C@@H](O)CN2C(=O)[C@@H](NC(=O)COCCOCCOCCCOCCOCCNC(=O)C[C@@H]2N=C(c3ccc(Cl)cc3)c3c(sc(C)c3C)-n3c(C)nnc32)C(C)(C)C)cc1` = 95.9

* * *

System: c-myc in 22RV-1 cells
Experiment: Human c-myc ELISA assay
Type: cell-based
Details: Homo sapiens, 22Rv1, 18 h, read-out: Degradation of BRD4: Maximum inhibition (%) c-Myc ELISA in 22RV1 cells
endpoint name: Emax (%)
# unit: % | format: bare number

# Emax (compound: `Cc1ncsc1-c1ccc(CNC(=O)[C@@H]2C[C@@H](O)CN2C(=O)[C@@H](C(C)C)n2cc(-c3cccc(O[C@@H](C)CNC(=O)C[C@@H]4N=C(c5ccc(Cl)cc5)c5c(sc(C)c5C)-n5c(C)nnc54)c3)cn2)cc1` ) is 16

# Emax (compound: `Cc1ncsc1-c1ccc([C@H](C)NC(=O)[C@@H]2C[C@@H](O)CN2C(=O)[C@@H](NC(=O)[C@H](C)OCCCOCCNC(=O)C[C@@H]2N=C(c3ccc(Cl)cc3)c3c(sc(C)c3C)-n3c(C)nnc32)C(C)(C)C)cc1` ) is 92

* * *

System: c-myc in 22RV-1 cells
Assay: Human c-myc ELISA assay
Format: cell-based
Conditions: Homo sapiens, 22Rv1, 18 h, read-out: Degradation of BRD4: Maximum inhibition (%) c-Myc ELISA in 22RV1 cells
endpoint name: Emax
Phrase the answer as number then unit, nothing more needed.

# value of Emax, c-myc in 22RV-1 cells, item Cc1ncsc1-c1ccc([C@H](C)NC(=O)[C@@H]2C[C@@H](O)CN2C(=O)[C@H](C(C)C)n2cc(-c3ccnc(N4CCN(C(=O)C[C@@H]5N=C(c6ccc(Cl)cc6)c6c(sc(C)c6C)-n6c(C)nnc65)CC4)c3)cn2)cc1 [Example 322] = 92.6%

# value of Emax, c-myc in 22RV-1 cells, item Cc1ncsc1-c1ccc([C@H](C)NC(=O)[C@@H]2C[C@@H](O)CN2C(=O)[C@@H](NC(=O)c2ccc(OCCCNC(=O)C[C@@H]3N=C(c4ccc(Cl)cc4)c4c(sc(C)c4C)-n4c(C)nnc43)cc2)C(C)(C)C)cc1 [Example 132] = 99%
